- TESTED SYSTEM: MAPK14 (human)
- EXPERIMENTAL PROTOCOL: In vitro Inhibition of VEGF Stimulated MAPK Activation
pIC50: −log10 of the molar value.
PROPERTY: pIC50

C#CCNC(=O)Nc1ccc(Oc2ncnc3cc(OC)c(OC)cc23)cc1F : 7.34
CCCCNC(=O)Nc1ccc(Oc2ncnc3cc(OC)c(OC)cc23)c(C)c1 : 6.35
COc1cc2ncnc(Oc3ccc(NC(=O)Nc4ccccc4C)cc3)c2cc1OC : 8.22
COc1cc2ncnc(Oc3ccc(NC(=O)NCc4ccc(F)cc4F)cc3)c2cc1OC : 5.17
COc1cc2ncnc(Oc3ccc(NC(=O)Nc4ccc(F)cc4)c(Cl)c3)c2cc1OC : 9.15

1: COc1cc2nccc(Oc3ccc(NC(=O)Nc4ccc(Cl)cn4)c(Cl)c3)c2cc1OC
2: CCCNC(=O)Nc1ccc(Oc2ncnc3cc(OC)c(OC)cc23)cc1Cl
Parameter metric = pIC50. Return the lower-valued option from 1 and 2 . Your answer should be the label of the entry you select.
2
(2: 7.80, 1: 8.54)

P: CCCCCNC(=O)Nc1ccc(Oc2ncnc3cc(OC)c(OC)cc23)cc1Cl
Q: CCNC(=O)Nc1ccc(Oc2ncnc3cc(OC)c(OC)cc23)cc1Cl
R: CCNC(=O)Nc1ccc(Oc2ncnc3cc(OC)c(OC)cc23)cc1
S: CCC(C)NC(=O)Nc1ccc(Oc2ncnc3cc(OC)c(OC)cc23)cc1Cl (stereo not given)
T: CCCNC(=O)Nc1ccc(Oc2ncnc3cc(OC)c(OC)cc23)cc1C
Sort entries by pIC50 from minimum to maximum value. # the answer lists labels in the order requested
T, R, S, Q, P
(T: 6.82, R: 7.15, S: 7.52, Q: 8.10, P: 8.39)

I: COc1ccc(NC(=O)Nc2cc(C)c(Oc3ccnc4cc(OC)c(OC)cc34)cc2C)cc1
II: CCC(C)NC(=O)Nc1ccc(Oc2ccnc3cc(OC)c(OC)cc23)cc1F (stereo not given)
III: COc1cc2nccc(Oc3ccc(NC(=O)NCC(C)C)c(F)c3)c2cc1OC
IV: C=CCNC(=O)Nc1ccc(Oc2ncnc3cc(OC)c(OC)cc23)cc1
V: COc1ccccc1NC(=O)Nc1ccc(Oc2ncnc3cc(OC)c(OC)cc23)cc1
Output the entries ranked by pIC50 from maximum down to minimum. # the answer lists labels in the order requested
V, I, II, III, IV

P: COc1cc2ncnc(Oc3ccc(NC(=O)Nc4ccc(F)cc4)cc3C)c2cc1OC
Q: C=CCNC(=O)Nc1ccc(Oc2ncnc3cc(OC)c(OC)cc23)cc1Cl
R: C#CCNC(=O)Nc1ccc(Oc2ncnc3cc(OC)c(OC)cc23)cc1
S: COc1ccc(NC(=O)Nc2ccc(Oc3ccnc4cc(OC)c(OC)cc34)c(C)c2C)cc1
T: COc1ccc(NC(=O)Nc2ccc(Oc3ccnc4cc(OC)c(OC)cc34)cc2Cl)cc1
Sort entries by pIC50 from minimum to maximum value. # the answer lists labels in the order requested
R, Q, P, S, T
(R: 7.17, Q: 7.89, P: 8.28, S: 8.48, T: 9.40)
